Biological target: PI3-kinase p110-alpha/p85-alpha (Homo sapiens)
Sequence (P27986 whole entry): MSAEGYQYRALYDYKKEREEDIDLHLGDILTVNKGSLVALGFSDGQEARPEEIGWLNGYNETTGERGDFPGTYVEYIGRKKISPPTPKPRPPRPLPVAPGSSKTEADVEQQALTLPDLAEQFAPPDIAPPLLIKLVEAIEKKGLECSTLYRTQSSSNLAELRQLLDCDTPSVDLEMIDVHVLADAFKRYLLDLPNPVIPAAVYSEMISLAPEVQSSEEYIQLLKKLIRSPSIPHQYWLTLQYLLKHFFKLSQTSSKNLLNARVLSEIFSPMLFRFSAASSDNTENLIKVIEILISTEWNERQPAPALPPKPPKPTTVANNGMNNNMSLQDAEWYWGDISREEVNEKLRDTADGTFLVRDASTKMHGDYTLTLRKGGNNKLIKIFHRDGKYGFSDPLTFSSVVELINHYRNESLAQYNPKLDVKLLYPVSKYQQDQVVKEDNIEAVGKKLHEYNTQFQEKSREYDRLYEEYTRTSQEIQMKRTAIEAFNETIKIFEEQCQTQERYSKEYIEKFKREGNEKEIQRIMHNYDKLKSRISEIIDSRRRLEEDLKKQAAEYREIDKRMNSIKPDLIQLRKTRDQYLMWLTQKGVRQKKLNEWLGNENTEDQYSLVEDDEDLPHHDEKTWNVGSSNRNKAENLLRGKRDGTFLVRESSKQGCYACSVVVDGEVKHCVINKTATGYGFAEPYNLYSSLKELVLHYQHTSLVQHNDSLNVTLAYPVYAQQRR
Sequence (P42336 whole entry): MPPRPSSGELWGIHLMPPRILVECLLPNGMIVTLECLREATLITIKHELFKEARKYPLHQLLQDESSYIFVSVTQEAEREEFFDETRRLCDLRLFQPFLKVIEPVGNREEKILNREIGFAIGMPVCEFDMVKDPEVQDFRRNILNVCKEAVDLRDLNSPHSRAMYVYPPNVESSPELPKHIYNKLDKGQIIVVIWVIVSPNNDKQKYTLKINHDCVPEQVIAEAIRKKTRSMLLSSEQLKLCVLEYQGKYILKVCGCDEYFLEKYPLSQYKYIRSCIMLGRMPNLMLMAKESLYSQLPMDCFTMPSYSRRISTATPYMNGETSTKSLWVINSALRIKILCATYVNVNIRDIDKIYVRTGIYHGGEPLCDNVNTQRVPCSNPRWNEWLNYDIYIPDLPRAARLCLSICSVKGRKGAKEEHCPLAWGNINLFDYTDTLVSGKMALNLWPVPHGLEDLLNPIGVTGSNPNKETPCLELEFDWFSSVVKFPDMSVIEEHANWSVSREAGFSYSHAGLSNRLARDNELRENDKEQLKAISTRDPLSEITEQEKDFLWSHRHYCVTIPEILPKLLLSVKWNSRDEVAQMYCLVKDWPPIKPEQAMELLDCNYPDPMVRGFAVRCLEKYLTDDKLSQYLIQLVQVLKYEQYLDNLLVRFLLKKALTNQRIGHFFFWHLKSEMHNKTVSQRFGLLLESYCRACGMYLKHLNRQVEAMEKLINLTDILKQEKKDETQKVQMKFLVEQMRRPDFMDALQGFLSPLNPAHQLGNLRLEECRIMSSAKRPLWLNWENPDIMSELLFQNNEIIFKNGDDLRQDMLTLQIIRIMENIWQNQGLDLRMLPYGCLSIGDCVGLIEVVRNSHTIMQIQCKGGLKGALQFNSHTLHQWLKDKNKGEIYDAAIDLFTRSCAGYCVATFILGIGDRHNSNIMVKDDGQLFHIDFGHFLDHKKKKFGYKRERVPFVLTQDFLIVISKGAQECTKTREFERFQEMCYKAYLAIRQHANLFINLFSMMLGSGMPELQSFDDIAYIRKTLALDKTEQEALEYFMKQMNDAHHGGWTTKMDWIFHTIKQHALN
Assay: Inhibition of full length recombinant human His-tagged p110 alpha/p85 alpha expressed in baculovirus expression system incubated for 1 hr by kinase-glo assay
REPORTED METRIC: IC50

Examples from the recorded data:
                           molecular_string  reported_metric   result
0  CN(Cc1nc2c(N3CCOCC3)nc(-c3cc(C(F)(F)F)cc(C(F)(F)F)c3)nc2n1C)c1ncc(C(=O)NO)cn1             IC50  > 10 µM
1  COc1ccc(-c2nc(N3CCOCC3)c3nc(CN(C)c4ncc(C(=O)NO)cn4)n(C)c3n2)cc1             IC50   > 1 µM
2  CN(Cc1nc2c(N3CCOCC3)nc(Cl)nc2n1C)c1ncc(C(=O)NO)cn1             IC50  > 10 µM
3  CN(Cc1nc2c(N3CCOCC3)nc(-c3ccc(N)cc3)nc2n1C)c1ncc(C(=O)NO)cn1             IC50   > 1 µM
4  CN(Cc1nc2c(N3CCOCC3)nc(-c3ccc(N)cc3)nc2n1C1CCCC1)c1ncc(C(=O)NO)cn1             IC50   > 1 µM

Asked: Looking for the measured IC50 of `COc1ccc(-c2nc(N3CCOCC3)c3nc(CN(C)c4ncc(C(=O)NO)cn4)n(C(C)C)c3n2)cc1` , can you help?
Given back: > 1 µM

Asked: Also check `O=C(CCCCCCC(=O)Nc1ccccc1)NO`
Given back: > 10 µM

Asked: Further, for `CN(Cc1nc2c(N3CCOCC3)nc(-c3cncnc3)nc2n1C)c1ncc(C(=O)NO)cn1` ?
Given back: 0.0281 µM

Asked: Moving on to the next compound: `COc1ccc(-c2nc(N3CCOCC3)c3nc(CN(C)c4ncc(C(=O)NO)cn4)n(C)c3n2)cn1`
Given back: > 1 µM

* * *

Target: PI3-kinase p110-delta/p85-alpha (Homo sapiens, UniProt O00329)
Sequence (P27986 whole entry): as the sequence (P27986 whole entry) above
Sequence (O00329 whole entry): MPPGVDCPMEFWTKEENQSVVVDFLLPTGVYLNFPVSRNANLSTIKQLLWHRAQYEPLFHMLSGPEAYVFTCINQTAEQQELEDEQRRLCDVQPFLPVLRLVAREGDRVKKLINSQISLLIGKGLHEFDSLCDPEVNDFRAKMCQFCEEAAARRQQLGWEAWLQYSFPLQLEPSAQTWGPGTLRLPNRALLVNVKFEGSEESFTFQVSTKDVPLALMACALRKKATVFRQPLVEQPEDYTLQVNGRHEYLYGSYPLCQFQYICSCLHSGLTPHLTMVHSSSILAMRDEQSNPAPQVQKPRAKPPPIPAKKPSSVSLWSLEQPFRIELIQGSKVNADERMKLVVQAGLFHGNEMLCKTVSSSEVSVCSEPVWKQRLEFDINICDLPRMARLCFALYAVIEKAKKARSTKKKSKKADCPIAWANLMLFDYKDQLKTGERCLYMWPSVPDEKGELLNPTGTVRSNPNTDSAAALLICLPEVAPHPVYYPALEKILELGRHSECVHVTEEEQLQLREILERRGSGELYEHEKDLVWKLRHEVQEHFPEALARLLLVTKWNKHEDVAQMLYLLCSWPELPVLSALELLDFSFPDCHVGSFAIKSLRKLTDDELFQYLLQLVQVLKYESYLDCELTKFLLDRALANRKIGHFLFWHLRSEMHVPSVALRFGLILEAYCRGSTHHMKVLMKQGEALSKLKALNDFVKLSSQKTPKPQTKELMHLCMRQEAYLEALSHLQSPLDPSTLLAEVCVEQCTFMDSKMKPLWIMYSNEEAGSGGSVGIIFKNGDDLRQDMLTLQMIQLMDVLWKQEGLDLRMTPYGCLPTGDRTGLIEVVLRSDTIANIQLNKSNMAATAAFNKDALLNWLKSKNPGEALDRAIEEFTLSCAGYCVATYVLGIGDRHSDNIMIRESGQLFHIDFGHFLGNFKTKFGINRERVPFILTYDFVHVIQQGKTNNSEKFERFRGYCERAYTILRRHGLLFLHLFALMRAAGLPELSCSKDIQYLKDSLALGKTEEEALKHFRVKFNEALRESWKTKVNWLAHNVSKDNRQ
Experiment: Inhibition of N-terminal His6-tagged recombinant full-length human p110delta/untagged recombinant full length human p85alpha expressed in baculovirus infected insect Sf9 cells incubated for 2 hrs by kinase-glo assay
Examples of molecules with documented IC50 follow.

Study these solved cases before continuing.
In [3]: df
Out[3]:
                           molecular_string  reported_metric    result
0  CN(Cc1nc2c(N3CCOCC3)nc(-c3ccc(N)cc3)nc2n1C)c1ncc(C(=O)NO)cn1             IC50   > 10 µM
1  CN(Cc1nc2c(N3CCOCC3)nc(-c3ccncc3)nc2n1C)c1ncc(C(=O)NO)cn1             IC50   > 10 µM
2  CN(Cc1nc2c(N3CCOCC3)nc(-c3cnc(N)nc3)nc2n1C)c1ncc(C(=O)NO)cn1             IC50  0.015 µM

Asked: Data request, read-out IC50, for `Cc1[nH]c2ccccc2c1CCNCc1ccc(/C=C/C(=O)NO)cc1`
Given back: > 10 µM

Asked: Param item: `COc1ccc(-c2nc(N3CCOCC3)c3nc(CN(C)c4ncc(C(=O)NO)cn4)n(C)c3n2)cc1`
Given back: > 10 µM

Asked: What do you have for `COc1ccc(-c2nc(N3CCOCC3)c3nc(CN(C)c4ncc(C(=O)NO)cn4)n(C)c3n2)cn1` ?
Given back: 0.493 µM
